System: U2932 TK216-resistant clone 2
EXPERIMENTAL_PROTOCOL: cell proliferation relative to vehicle (% of vehicle); higher = less growth inhibition
RUN_CONDITIONS: 500 nM; 72 h
Where a name gives a salt, the structure may show the parent alone.
MEASURE: cell proliferation

>>> print(df.to_string())
                                   molecule             measure  experimental_value
0  CN1CCN(CCCNc2ncc(Cl)c(-c3cc4c(C(=O)NC5CC5)cccc4s3)n2)CC1  cell proliferation                86.5
1  CC/C(=C(\c1ccccc1)c1ccc(OCCN(C)C)cc1)c1ccccc1 [Tamoxifen Citrate]  cell proliferation                89.7
2  COc1ccc(C2=N[C@@H](c3ccc(Cl)cc3)[C@@H](c3ccc(Cl)cc3)N2C(=O)N2CCNC(=O)C2)c(OC(C)C)c1 [Nutlin-3a]  cell proliferation                 102
3  COc1cccc(-c2cc(F)ccc2C2Cc3nc(N)nc(C)c3C(=O)N2)n1 (configuration not stated)  cell proliferation                4.81
4       C=CCc1ccc(O)c(-c2ccc(O)c(CC=C)c2)c1  cell proliferation                 111
5  O=C1c2c(O)ccc(O)c2C(=O)c2c(NCCNCCO)ccc(NCCNCCO)c21 [Mitoxantrone]  cell proliferation                5.19
6  CCCc1ccc(OCC(=O)N(Cc2nc(-c3cccnc3)no2)C(C)C)cc1  cell proliferation                 102
7  C[C@H]1c2cccc(O)c2C(=O)C2=C(O)[C@]3(O)C(=O)C(C(N)=O)=C(O)[C@@H](N(C)C)[C@@H]3[C@@H](O)[C@@H]21 [Doxycycline Hyclate]  cell proliferation                 105
8  CN[C@@H](C)C(=O)N[C@H]1CN(C(=O)CC(C)C)CC[C@H]2CC[C@@H](C(=O)NC(c3ccccc3)c3ccccc3)N2C1=O  cell proliferation                 111
9  C[C@@H](O[C@H]1OCCN(Cc2n[nH]c(=O)[nH]2)[C@H]1c1ccc(F)cc1)c1cc(C(F)(F)F)cc(C(F)(F)F)c1 [Aprepitant]  cell proliferation                 106

Name the recorded cell proliferation for CCN(CC)CCNC(=O)c1c(C)[nH]c(/C=C2\C(=O)Nc3ccc(F)cc32)c1C [Sunitinib Malate] .
94.6

Name the recorded cell proliferation for `COc1ccc(-c2ccc3c(N4CCOCC4)nc(N4C[C@@H](C)O[C@@H](C)C4)nc3n2)cc1CO` .
46.8

Name the recorded cell proliferation for Cc1cc(Nc2cc(N3CCN(C)CC3)nc(/C=C/c3ccccc3)n2)n[nH]1 [ENMD-2076 L-(+)-Tartaric acid] .
61.9

Name the recorded cell proliferation for NC(=O)NO [Hydroxyurea] .
94.7

Name the recorded cell proliferation for `CN(C)CCOc1ccc(-c2nc(-c3ccncc3)c(-c3ccc4c(c3)CC/C4=N\O)[nH]2)cc1` .
89.5

Name the recorded cell proliferation for `O=c1sn(-c2cccc3ccccc23)c(=O)n1Cc1ccccc1` .
106

Name the recorded cell proliferation for `C[C@@H](Oc1cc(-n2cnc3ccc(CN4CCN(C)CC4)cc32)sc1C(N)=O)c1ccccc1C(F)(F)F` .
10
